Assay: self-splicing fitness, log relative to wild type (ln ratio); higher = more splicing; Tetrahymena group I intron in knt gene, E. coli kanamycin selection, DiMSum; sequences stand for … in CUCUCU…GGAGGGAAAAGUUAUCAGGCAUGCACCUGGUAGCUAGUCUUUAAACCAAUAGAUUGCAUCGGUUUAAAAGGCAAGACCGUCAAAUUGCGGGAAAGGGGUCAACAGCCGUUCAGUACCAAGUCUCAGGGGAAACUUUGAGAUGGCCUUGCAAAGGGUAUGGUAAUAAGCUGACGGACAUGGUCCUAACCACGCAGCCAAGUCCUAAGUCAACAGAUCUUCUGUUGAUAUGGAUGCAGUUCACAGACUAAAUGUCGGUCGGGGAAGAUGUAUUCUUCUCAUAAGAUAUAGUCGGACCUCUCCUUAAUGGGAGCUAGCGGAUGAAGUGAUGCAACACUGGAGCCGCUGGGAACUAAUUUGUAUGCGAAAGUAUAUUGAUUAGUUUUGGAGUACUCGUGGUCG;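 further: selection with 25 µg/mL kanamycin versus none on LB agar overnight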
Settings: 37 °C
Field: self-splicing fitness (ln). Provide a value for each of the sequences that follow.
Numbers only.

Past entries and their recorded results:
[[record]]
sequence_text = "UAACAGCAAUAUUACGCAGC"
measurement_kind = "self-splicing fitness (ln)"
readout_value = -3.15

[[record]]
sequence_text = "AGCCAGCAAUAUUACGCGCA"
measurement_kind = "self-splicing fitness (ln)"
readout_value = 0.255

[[record]]
sequence_text = "CCUGAGCAAUAUUACGAAGU"
measurement_kind = "self-splicing fitness (ln)"
readout_value = -0.825

[[record]]
sequence_text = "CGCUAGCAAUAUUACGACCU"
measurement_kind = "self-splicing fitness (ln)"
readout_value = -1.62

[[record]]
sequence_text = "CACCAGCAAUAUUACGGGAG"
measurement_kind = "self-splicing fitness (ln)"
readout_value = -1.26


Consider the following items and state reported self-splicing fitness (ln) for each.
1. UGCUAGCAAUAUUACGGGUC
2. CACAAGCAAUAUUACGCAUU
3. GGCCAGCAAUAUUACGCGUA

output:
1. -2.62
2. -2.5
3. -0.484

###

Experiment: self-splicing fitness, log relative to wild type (ln ratio); higher = more splicing; Tetrahymena group I intron in knt gene, E. coli kanamycin selection, DiMSum; sequences stand for … in CUCUCU…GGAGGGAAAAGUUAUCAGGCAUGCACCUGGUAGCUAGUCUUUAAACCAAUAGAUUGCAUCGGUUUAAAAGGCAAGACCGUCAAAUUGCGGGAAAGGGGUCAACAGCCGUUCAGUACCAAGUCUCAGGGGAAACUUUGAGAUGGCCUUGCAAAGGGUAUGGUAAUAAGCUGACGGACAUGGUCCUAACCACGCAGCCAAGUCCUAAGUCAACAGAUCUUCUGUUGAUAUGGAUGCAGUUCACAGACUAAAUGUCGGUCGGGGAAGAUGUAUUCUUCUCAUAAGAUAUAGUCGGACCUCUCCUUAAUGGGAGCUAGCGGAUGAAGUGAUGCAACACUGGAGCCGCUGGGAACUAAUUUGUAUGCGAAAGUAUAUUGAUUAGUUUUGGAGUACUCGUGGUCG
Details: 30 °C
Answer each item with its documented self-splicing fitness (ln).
Answers are plain numbers.

Known results for sequences:
[[record]]
sequence_text = "GCAUAGCAAUAUUACGGUUA"
readout_value = -1.34

[[record]]
sequence_text = "AGACAGCAAUAUUACGGAUG"
readout_value = -2.81

[[record]]
sequence_text = "GUGUAGCAAUAUUACGCAGU"
readout_value = -3.25

[[record]]
sequence_text = "CGUAAGCAAUAUUACGCUCU"
readout_value = -0.698

[[record]]
sequence_text = "GCCGAGCAAUAUUACGAAGU"
readout_value = -2.51


Hello, I would appreciate it if you could give self-splicing fitness (ln) for each entry below.
1. AUUGAGCAAUAUUACGCAUA
2. AUCAAGCAAUAUUACGGCAC

output:
1. -3
2. -1.67

Hey, quick one: what's self-splicing fitness (ln) for each of these?
1. GUUGAGCAAUAUUACGGCUA
2. UAAAAGCAAUAUUACGAAGA
3. UAUGAGCAAUAUUACGCUUA
4. GGGUAGCAAUAUUACGCAGC
5. CCCGAGCAAUAUUACGUGUA
6. AAGUAGCAAUAUUACGCUGA

output:
[-0.763, -2.44, -3.19, -2.55, -3.33, -1.36]

Provide each entry's self-splicing fitness (ln) from the list below.
1. AAGCAGCAAUAUUACGUAAA
2. GUAAAGCAAUAUUACGGACU
3. AGGCAGCAAUAUUACGGUAC
4. UACUAGCAAUAUUACGGCCU
5. CGUCAGCAAUAUUACGGGCA
6. ACUAAGCAAUAUUACGCGCA

output:
[-1.84, -0.753, -3.68, -1.25, 0.0754, -0.252]

Answer for every listed entry: what is its self-splicing fitness (ln)? The entries follow.
1. AAAGAGCAAUAUUACGCGAA
2. GCUGAGCAAUAUUACGGGCU
3. GGUAAGCAAUAUUACGACAU

output:
-2.83
-1.89
-0.0747

For every item in the list below, what is its measured self-splicing fitness (ln)?
1. GGCAAGCAAUAUUACGGAGC
2. UUGUAGCAAUAUUACGCUCU
3. CCGCAGCAAUAUUACGACCU
4. GGUAAGCAAUAUUACGAGGU
5. CCCCAGCAAUAUUACGGCUU
6. GACAAGCAAUAUUACGCUUG
7. AUGGAGCAAUAUUACGGCAG
8. ACUUAGCAAUAUUACGGCCU

output:
[-1.36, -1.21, -3.36, -3.61, -3.23, -4.51, -3.04, -0.24]

Could you tell me self-splicing fitness (ln) for each of these sequences? They are listed below.
1. GCAGAGCAAUAUUACGGCUU
2. AUUAAGCAAUAUUACGGGAC
3. CACCAGCAAUAUUACGGUGU
4. GUGAAGCAAUAUUACGGAGG
5. UCCAAGCAAUAUUACGGCAC
6. GUGCAGCAAUAUUACGAGCU
7. GAACAGCAAUAUUACGCAAC

output:
-1.92
-3.35
-3.39
-2.3
-4.06
-1.45
-1.58

Required: self-splicing fitness (ln), one value per sequence below.
1. CUGGAGCAAUAUUACGUCUA
2. AAUCAGCAAUAUUACGCGCU

output:
1. -1.72
2. -1.16

# batch size: 6; output self-splicing fitness (ln) per entry
1. AGGGAGCAAUAUUACGGGUA
2. UAUCAGCAAUAUUACGAAGC
3. UUCAAGCAAUAUUACGUUGU
4. UGUCAGCAAUAUUACGCCUA
5. GUUUAGCAAUAUUACGGGGA
6. UACUAGCAAUAUUACGCGAG

output:
1. -3.37
2. -3.75
3. -3.87
4. -0.234
5. -3.57
6. -1.86

###

Can you tell me self-splicing fitness (ln) for the items I'm about to list?
Assay: self-splicing fitness, log relative to wild type (ln ratio); higher = more splicing; Tetrahymena group I intron in knt gene, E. coli kanamycin selection, DiMSum; sequences stand for … in CUCUCU…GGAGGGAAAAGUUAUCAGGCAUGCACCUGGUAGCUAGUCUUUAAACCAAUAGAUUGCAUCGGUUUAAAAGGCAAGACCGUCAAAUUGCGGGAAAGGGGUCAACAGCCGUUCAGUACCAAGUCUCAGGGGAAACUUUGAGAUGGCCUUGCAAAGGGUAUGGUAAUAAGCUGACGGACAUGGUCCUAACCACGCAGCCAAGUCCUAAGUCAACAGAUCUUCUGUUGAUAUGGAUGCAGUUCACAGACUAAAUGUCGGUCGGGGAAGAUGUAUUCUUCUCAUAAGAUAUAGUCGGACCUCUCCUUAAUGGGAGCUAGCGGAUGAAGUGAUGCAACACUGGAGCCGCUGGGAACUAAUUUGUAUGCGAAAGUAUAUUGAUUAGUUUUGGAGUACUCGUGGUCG
Conditions: 37 °C
One number for each entry.

Some solved entries appear below for comparison.
[[record]]
sequence_text = "UGGAAGCAAUAUUACGGACA"
readout_value = -0.0422

[[record]]
sequence_text = "GAUUAGCAAUAUUACGAAAG"
readout_value = -0.574

[[record]]
sequence_text = "UAAGAGCAAUAUUACGGCAG"
readout_value = -1.38

[[record]]
sequence_text = "GAUAAGCAAUAUUACGGACU"
readout_value = -0.289

[[record]]
sequence_text = "ACAAAGCAAUAUUACGGAAC"
readout_value = -2.43

[[record]]
sequence_text = "AAGCAGCAAUAUUACGCCGG"
readout_value = -0.994


Batch lookup, self-splicing fitness (ln) per entry.
1. AUCAAGCAAUAUUACGACCC
2. CGACAGCAAUAUUACGUGCA
3. CACAAGCAAUAUUACGCUAA
4. AAAGAGCAAUAUUACGAUAC
5. CAGAAGCAAUAUUACGAAAC
6. UGCGAGCAAUAUUACGUAGG

output:
-0.0224
-0.14
-1.82
-2.18
-2.18
-2.76

Source listed as the supplement of paper PMC7877785.
